Biological target: hCA I (Homo sapiens, UniProt P00915)
Sequence (P00915 whole entry): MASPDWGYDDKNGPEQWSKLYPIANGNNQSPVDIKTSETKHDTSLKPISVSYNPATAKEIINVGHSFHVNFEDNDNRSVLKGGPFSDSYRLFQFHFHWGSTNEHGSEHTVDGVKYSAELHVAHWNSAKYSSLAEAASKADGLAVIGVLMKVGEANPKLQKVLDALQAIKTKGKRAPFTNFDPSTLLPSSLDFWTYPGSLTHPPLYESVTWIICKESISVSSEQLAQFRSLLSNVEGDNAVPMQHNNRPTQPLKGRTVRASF
Assay: CO2 hydrase stopped-flow inhibition assay, hCA I
Conditions: Table S2, Ki threshold of 1 µM
measure: experimental activity class hCA I

Below are worked cases with known answers.
INSERT INTO results (structure_as_smiles, measure, result) VALUES
  ('O=S(=O)(Nc1cccc(C(F)(F)F)c1)c1cc(Cl)ccc1Cl', 'experimental activity class hCA I', 'Inactive'),
  ('NS(=O)(=O)c1ccc(OCCn2ccnc2)cc1', 'experimental activity class hCA I', 'Active'),
  ('O=C(Nn1cnnc1)c1cccc(S(=O)(=O)Nc2cc(C(F)(F)F)ccc2Cl)c1', 'experimental activity class hCA I', 'Inactive'),
  ('CCOc1ccccc1C(=O)Nc1nc2ccc(S(N)(=O)=O)cc2s1', 'experimental activity class hCA I', 'Active'),
  ('NS(=O)(=O)c1ccc(CCNC(=O)C/C=C2/NC(=O)c3c(sc4c3CCCC4)N2)cc1', 'experimental activity class hCA I', 'Inactive');

Kindly consider the entry below.
Entry NS(=O)(=O)c1ccc(Nc2nc(-c3ccc(O)cc3O)cs2)cc1 : reported experimental activity class hCA I = ?
Inactive

---

# pKi per entry for hCA I (Homo sapiens)
Would you please state pKi, meaning minus log10 of the concentration in mol/L, as a bare number?

INSERT INTO assay_data (structure_as_smiles, measured_target, measure, measured_number) VALUES
  ('CCOc1ccccc1C(=O)Nc1nc2ccc(S(N)(=O)=O)cc2s1', 'hCA I (Homo sapiens)', 'pKi', 6.18),
  ('NS(=O)(=O)c1ccc(OCCn2ccnc2)cc1', 'hCA I (Homo sapiens)', 'pKi', 7.44);

--- query ---
I am curious: what pKi value has been reported for NS(=O)(=O)c1ccc(Nc2nc(-c3ccc(O)cc3O)cs2)cc1 ?
5.97

---

Target: hCA II (Homo sapiens)
Assay: CO2 hydrase stopped-flow inhibition assay, hCA II
Settings: Table S2, Ki threshold of 1 µM
measure: experimental activity class hCA II

As a guide, the following entries are already answered.
INSERT INTO assay_data (compound, measured_target, measure, result) VALUES
  ('NS(=O)(=O)c1ccc(Nc2nc(-c3ccc(O)cc3O)cs2)cc1 [Compound 12]', 'hCA II (Homo sapiens)', 'experimental activity class hCA II', 'Active'),
  ('NS(=O)(=O)c1ccc(CCNC(=O)C/C=C2/NC(=O)c3c(sc4c3CCCC4)N2)cc1 [Compound 2]', 'hCA II (Homo sapiens)', 'experimental activity class hCA II', 'Active'),
  ('O=S(=O)(Nc1cccc(C(F)(F)F)c1)c1cc(Cl)ccc1Cl [Compound 10]', 'hCA II (Homo sapiens)', 'experimental activity class hCA II', 'Inactive'),
  ('O=C(Nn1cnnc1)c1cccc(S(=O)(=O)Nc2cc(C(F)(F)F)ccc2Cl)c1 [Compound 3]', 'hCA II (Homo sapiens)', 'experimental activity class hCA II', 'Inactive'),
  ('NS(=O)(=O)c1ccc(OCCn2ccnc2)cc1 [Compound 4]', 'hCA II (Homo sapiens)', 'experimental activity class hCA II', 'Active');

Now, please, on to the next compound.
Look up experimental activity class hCA II with hCA II (Homo sapiens) for this compound: CCOc1ccccc1C(=O)Nc1nc2ccc(S(N)(=O)=O)cc2s1 [Compound 11]
Active

---

Catalogue of Ki readings, one per entry.
Target: hCA IX (Homo sapiens, UniProt Q16790)

INSERT INTO assay_data (structure_as_smiles, measured_target, measure, result) VALUES
  ('NS(=O)(=O)c1ccc(OCCn2ccnc2)cc1', 'hCA IX (Homo sapiens, UniProt Q16790)', 'Ki', '2520 nM'),
  ('O=C(Nn1cnnc1)c1cccc(S(=O)(=O)Nc2cc(C(F)(F)F)ccc2Cl)c1', 'hCA IX (Homo sapiens, UniProt Q16790)', 'Ki', '> 100000 nM'),
  ('O=S(=O)(Nc1cccc(C(F)(F)F)c1)c1cc(Cl)ccc1Cl', 'hCA IX (Homo sapiens, UniProt Q16790)', 'Ki', '> 100000 nM'),
  ('NS(=O)(=O)c1ccc(Nc2nc(-c3ccc(O)cc3O)cs2)cc1', 'hCA IX (Homo sapiens, UniProt Q16790)', 'Ki', '313 nM');

Give hCA IX (Homo sapiens, UniProt Q16790) Ki for CCOc1ccccc1C(=O)Nc1nc2ccc(S(N)(=O)=O)cc2s1
73.7 nM

---

Molecular target: UniProt:O43570
measure: pKi
For clarity, pKi is expressed as the negative log10 of concentration in mol/L.

Using the record for NS(=O)(=O)c1ccc(Nc2nc(-c3ccc(O)cc3O)cs2)cc1 [Compound 12] , report its pKi.
6.19

---

Target: hCA XII (Homo sapiens)
Sequence (O43570 25-354): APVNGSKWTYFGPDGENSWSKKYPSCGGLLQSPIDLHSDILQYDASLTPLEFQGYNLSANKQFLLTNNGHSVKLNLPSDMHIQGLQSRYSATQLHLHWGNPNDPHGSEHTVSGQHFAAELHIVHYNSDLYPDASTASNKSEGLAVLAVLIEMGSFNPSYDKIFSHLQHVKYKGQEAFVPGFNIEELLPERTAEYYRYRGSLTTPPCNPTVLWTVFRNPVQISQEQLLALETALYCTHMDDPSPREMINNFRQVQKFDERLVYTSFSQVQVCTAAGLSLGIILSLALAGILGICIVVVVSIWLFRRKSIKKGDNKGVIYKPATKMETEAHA
Assay: CO2 hydrase stopped-flow inhibition assay, hCA XII
Settings: Table S2, Ki threshold of 1 µM
measure: experimental activity class hCA XII

INSERT INTO measurements (structure_as_smiles, result) VALUES
  ('NS(=O)(=O)c1ccc(OCCn2ccnc2)cc1', 'Active'),
  ('NS(=O)(=O)c1ccc(Nc2nc(-c3ccc(O)cc3O)cs2)cc1', 'Active'),
  ('O=S(=O)(Nc1cccc(C(F)(F)F)c1)c1cc(Cl)ccc1Cl', 'Inactive'),
  ('O=C(Nn1cnnc1)c1cccc(S(=O)(=O)Nc2cc(C(F)(F)F)ccc2Cl)c1', 'Inactive');

Would you mind telling me what experimental activity class hCA XII value was observed for NS(=O)(=O)c1ccc(CCNC(=O)C/C=C2/NC(=O)c3c(sc4c3CCCC4)N2)cc1 ?
Active

Reported experimental activity class hCA XII for CCOc1ccccc1C(=O)Nc1nc2ccc(S(N)(=O)=O)cc2s1 : what is it?
Active

---

Molecular target: hCA IX (Homo sapiens)
Test: CO2 hydrase stopped-flow inhibition assay, hCA IX
Conditions: Table S2, Ki threshold of 1 µM
measure: experimental activity class hCA IX

As a guide, the following entries are already answered.
INSERT INTO assay_data (molecule, measured_target, result) VALUES
  ('CCOc1ccccc1C(=O)Nc1nc2ccc(S(N)(=O)=O)cc2s1 [Compound 11]', 'hCA IX (Homo sapiens)', 'Active'),
  ('NS(=O)(=O)c1ccc(CCNC(=O)C/C=C2/NC(=O)c3c(sc4c3CCCC4)N2)cc1 [Compound 2]', 'hCA IX (Homo sapiens)', 'Active'),
  ('NS(=O)(=O)c1ccc(OCCn2ccnc2)cc1 [Compound 4]', 'hCA IX (Homo sapiens)', 'Inactive'),
  ('O=C(Nn1cnnc1)c1cccc(S(=O)(=O)Nc2cc(C(F)(F)F)ccc2Cl)c1 [Compound 3]', 'hCA IX (Homo sapiens)', 'Inactive'),
  ('NS(=O)(=O)c1ccc(Nc2nc(-c3ccc(O)cc3O)cs2)cc1 [Compound 12]', 'hCA IX (Homo sapiens)', 'Active');

Which experimental activity class hCA IX reading was recorded for the molecule O=S(=O)(Nc1cccc(C(F)(F)F)c1)c1cc(Cl)ccc1Cl [Compound 10] ?
Inactive

---

Biological target: hCA II (Homo sapiens, UniProt P00918)
Test: CO2 hydrase stopped-flow inhibition assay, hCA II
measure: pKi
pKi here is simply -log10 of the concentration when that concentration is written in mol/L.

INSERT INTO measurements (structure_as_smiles, measure, measured_number) VALUES
  ('CCOc1ccccc1C(=O)Nc1nc2ccc(S(N)(=O)=O)cc2s1', 'pKi', 7.79);

Param item = NS(=O)(=O)c1ccc(CCNC(=O)C/C=C2/NC(=O)c3c(sc4c3CCCC4)N2)cc1 ; retrieve measured pKi.
7.94

What value of measured pKi is listed for NS(=O)(=O)c1ccc(Nc2nc(-c3ccc(O)cc3O)cs2)cc1 ?
6.82
